pIC50: recorded values
# Experimental System: NCp7 (Human immunodeficiency virus type 1 group M subtype B, UniProt P03347)
# Construct: within the nucleocapsid p7 (NCp7) protein portion of the polyprotein
# Assay: NCp7 binding to packaging-site oligonucleotide, electrophoretic mobility shift assay
# Measurement Context: Table 9; read-out: Nucleic Acid Binding (I50 µM)
# Experimental: Zinc finger reactivity was measured using a Zn specific fluorochrome, TSQ, N-(6-methoxy-8-quinolyl) -p-toluenesulfonamide, assay or a Trp37 zinc finger fluorescence assay. […] Measurement of Zn ejection from both fingers was measured using the Zn-selective fluorchrome probe TSQ (Molecular Probes, Eugene OR) as described by Rice (1996) J. Med. Chem 39:3606-3616. […]
Just the number, please; pIC50 means minus log10 of the concentration in mol/L.

{"Structure Smiles": "CC(=O)NS(=O)(=O)c1ccc(NC(=O)c2ccccc2SC(=O)CCCCBr)cc1", "Test Value": 4.00}

Problem: Item: CC(=O)NS(=O)(=O)c1ccc(NC(=O)c2ccccc2SC(=O)CCCC[n+]2ccccc2)cc1 Test system: NCp7 (Human immunodeficiency virus type 1 group M subtype B, UniProt P03347) Read-out: pIC50 Value: ?
Result: 6.00

---

# Experimental System: recombinant HIV-1 NCp7 protein (Human immunodeficiency virus type 1 group M subtype B, UniProt P03347)
# Construct: within the nucleocapsid p7 (NCp7) protein portion of the polyprotein
# Assay: Trp37 zinc finger fluorescence (zinc ejection) assay
# Assay type: biochemical
# Measurement Context: Table 3; average decrease in relative fluorescence
Recorded Metric: Zinc Finger Reactivity RFU/ min (RFU/ min)
The reply should contain only the number, in RFU/ min.

{"Compound": "COc1ccc(C(=O)Nc2ccc(S(=O)(=O)c3ccc(NC(=O)c4ccccc4SSc4ccccc4C(=O)Nc4ccc(S(=O)(=O)c5ccc(NC(=O)c6ccc(OC)cc6)cc5)cc4)cc3)cc2)cc1 [Compound 29D]", "Test Value": 6.9}

Proceed to the following item.
Problem: Bench note: what Zinc Finger Reactivity RFU/ min did O=C(Nc1ccc(S(=O)(=O)c2ccc(NC(=O)c3ccccc3SSc3ccccc3C(=O)Nc3ccc(S(=O)(=O)c4ccc(NC(=O)c5cc([N+](=O)[O-])cc([N+](=O)[O-])c5)cc4)cc3)cc2)cc1)c1cc([N+](=O)[O-])cc([N+](=O)[O-])c1 [Compound 33D] show?
Result: 1.6

---

# Test system: HIV-1 replication in TNFα-induced U1
# Assay: Inhibition of p24 release from TNFα-induced U1 cells
# Assay type: cell-based
# Measurement Context: Human immunodeficiency virus 1; 5 ng/ml TNFα, 48 hours; read-out: inhibition of release of HIV-1 virions (p24) from U1 cells, EC50
Recorded Metric: EC50 (µM)
The reply should contain only the number, in µM.

{"Structure Smiles": "CC(=O)NS(=O)(=O)c1ccc(NC(=O)c2ccccc2SC(=O)CCCC[n+]2ccccc2)cc1", "Recorded Metric": "EC50", "Test Value": 42.2}

Problem: Bench note: what EC50 did CC(=O)NS(=O)(=O)c1ccc(NC(=O)c2ccccc2SC(=O)CCCCBr)cc1 show?
Result: 94

---

# Experimental System: recombinant HIV-1 reverse transcriptase (Human immunodeficiency virus type 1 group M subtype B, UniProt P03366)
# Construct: using recombinant HIV-1 reverse transcriptase; S. Hughes, ABL Basic Research NCI-FCRDC, Frederick MD (supplied, not a catalogue product)
# Assay: Reverse transcriptase assay with rAdT and rCdG template/primer
# Format: biochemical
# Measurement Context: Table 7; rAdT template/primer; high dose test of 100 µM; read-out: Reverse transcriptase rAdT I50
IC50: recorded values

{"Structure Smiles": "CC(=O)NS(=O)(=O)c1ccc(NC(=O)c2ccccc2SC(=O)CCCC[n+]2ccccc2)cc1", "IC50": "> 100 µM"}

Problem: Bench note: what IC50 did CC(=O)NS(=O)(=O)c1ccc(NC(=O)c2ccccc2SC(=O)CCCCBr)cc1 show?
Result: > 100 µM

---

Zinc Finger Reactivity RFU/ min: recorded values
# Experimental System: recombinant HIV-1 NCp7 protein (Human immunodeficiency virus type 1 group M subtype B, UniProt P03347)
# Construct: within the nucleocapsid p7 (NCp7) protein portion of the polyprotein
# Assay: Trp37 zinc finger fluorescence (zinc ejection) assay
# Type: biochemical
# Measurement Context: Table 3; average decrease in relative fluorescence
The reply should contain only the number, in RFU/ min.

Problem: Bench note: what Zinc Finger Reactivity RFU/ min did O=C(Nc1ccc(S(=O)(=O)c2ccc(NS(=O)(=O)Cc3ccccc3[N+](=O)[O-])cc2)cc1)c1ccccc1SSc1ccccc1C(=O)Nc1ccc(S(=O)(=O)c2ccc(NS(=O)(=O)Cc3ccccc3[N+](=O)[O-])cc2)cc1 [Compound 34D] show?
Result: 1.5

---

# Experimental System: recombinant HIV-1 NCp7 protein (Human immunodeficiency virus type 1 group M subtype B)
# Construct: within the nucleocapsid p7 (NCp7) protein portion of the polyprotein
# Assay: Trp37 zinc finger fluorescence (zinc ejection) assay
# Format: biochemical
# Measurement Context: Table 6; average decrease in relative fluorescence units over 30 min
Recorded Metric: Zinc Finger Reactivity RFU/ min (RFU/ min)
The reply should contain only the number, in RFU/ min.

{"Structure Smiles": "O=C(CCCC[n+]1ccccc1)Sc1ccccc1C(=O)Nc1ccc(S(=O)(=O)c2ccc([N+](=O)[O-])cc2)cc1", "Zinc Finger Reactivity RFU/ min, RFU/ min": 4.1}
{"Structure Smiles": "CC(=O)Nc1cccc(S(=O)(=O)c2cccc(NC(=O)c3ccccc3SC(=O)CCCC[n+]3ccccc3)c2)c1", "Zinc Finger Reactivity RFU/ min, RFU/ min": 1.1}
{"Structure Smiles": "CC(=O)Nc1ccc(S(=O)(=O)c2ccc(NC(=O)c3ccccc3SC(=O)CCCC[n+]3ccccc3)cc2)cc1", "Zinc Finger Reactivity RFU/ min, RFU/ min": 1.7}
{"Structure Smiles": "O=C(CCCCBr)Sc1ccccc1C(=O)Nc1ccc(S(=O)(=O)c2ccc([N+](=O)[O-])cc2)cc1", "Zinc Finger Reactivity RFU/ min, RFU/ min": 1}
{"Structure Smiles": "O=C(CCCCBr)Sc1ccccc1C(=O)Nc1ccc(S(=O)(=O)c2ccc(NS(=O)(=O)Cc3ccccc3[N+](=O)[O-])cc2)cc1", "Zinc Finger Reactivity RFU/ min, RFU/ min": 1.9}
{"Structure Smiles": "CC(=O)NS(=O)(=O)c1ccc(NC(=O)c2ccccc2SC(=O)CCCC[n+]2ccccc2)cc1", "Zinc Finger Reactivity RFU/ min, RFU/ min": 3.6}
{"Structure Smiles": "CC(=O)NS(=O)(=O)c1ccc(NC(=O)c2ccccc2SC(=O)CCCCBr)cc1", "Zinc Finger Reactivity RFU/ min, RFU/ min": 1.8}
{"Structure Smiles": "NS(=O)(=O)c1ccc(CNC(=O)c2ccccc2SC(=O)CCCC[n+]2ccccc2)cc1", "Zinc Finger Reactivity RFU/ min, RFU/ min": 1.4}

Proceed to the following item.
Problem: Bench note: what Zinc Finger Reactivity RFU/ min did O=C(CCCC[n+]1ccccc1)Sc1ccccc1C(=O)Nc1ccc(S(=O)(=O)c2ccc(NS(=O)(=O)Cc3ccccc3[N+](=O)[O-])cc2)cc1 show?
Result: 0.86

---

# Tested on: HIV-1 NL4-3
# Assay: Virucidal (viral inactivation) assay on MAGI-CCR-5 cells
# Format: cell-based
# Measurement Context: Human immunodeficiency virus 1, NL43, MAGI-CCR5, read-out: virucidal I50 (concentration resulting in 50% virus inactivation)
# Description: The cell-based p24 attachment assay was performed as described in Rice (1995) Science 270:1194-1197. Viral inactivation assays were carried out as described in Rice (1995) Science 270:1194-1197, and Turpin (1997) supra, with minor modifications. […] Monolayers were fixed and stained with X-gal solution and blue cells counted. […]
IC50: recorded values
The reply should contain only the number, in µM.

Worked set:
{"Structure Smiles": "O=C(CCCC[n+]1ccccc1)Sc1ccccc1C(=O)Nc1ccc(S(=O)(=O)c2ccc([N+](=O)[O-])cc2)cc1", "Experimental System": "HIV-1 NL4-3", "IC50 [µM]": 2.1}
{"Structure Smiles": "CC(=O)NS(=O)(=O)c1ccc(NC(=O)c2ccccc2SC(=O)CCCCBr)cc1", "Experimental System": "HIV-1 NL4-3", "IC50 [µM]": 12.3}

Proceed to the following item.
Problem: Bench note: what IC50 did CC(=O)NS(=O)(=O)c1ccc(NC(=O)c2ccccc2SC(=O)CCCC[n+]2ccccc2)cc1 show?
Result: 13.2

---

Zinc Finger Reactivity RFU/30 min: recorded values
# Experimental System: recombinant HIV-1 NCp7 protein (Human immunodeficiency virus type 1 group M subtype B)
# Construct: within the nucleocapsid p7 (NCp7) protein portion of the polyprotein
# Assay: Trp37 zinc finger fluorescence (zinc ejection) assay
# Format: biochemical
# Measurement Context: Table 2; average decrease in relative fluorescence
The reply should contain only the number, in RFU/30 min.

Worked set:
{"Compound": "NS(=O)(=O)c1ccc(CCNC(=O)c2ccccc2SSc2ccccc2C(=O)NCCc2ccc(S(N)(=O)=O)cc2)cc1 [Compound 24D]", "Test Value": 2.7}
{"Compound": "NS(=O)(=O)c1ccc(CNC(=O)c2ccccc2SSc2ccccc2C(=O)NCc2ccc(S(N)(=O)=O)cc2)cc1 [Compound 23D]", "Test Value": 3.3}
{"Compound": "NS(=O)(=O)c1ccc(Cn2sc3ccccc3c2=O)cc1", "Test Value": 2.7}
{"Compound": "NS(=O)(=O)c1ccc(CCn2sc3ccccc3c2=O)cc1", "Test Value": 2.7}

Proceed to the following item.
Problem: Bench note: what Zinc Finger Reactivity RFU/30 min did NS(=O)(=O)c1ccc(NC(=O)CNC(=O)c2ccccc2SSc2ccccc2C(=O)NCC(=O)Nc2ccc(S(N)(=O)=O)cc2)cc1 [Compound 25D] show?
Result: 7.9
